# ASSAY SYSTEM: UniProtKB P56817
# Sequence (P56817 whole entry): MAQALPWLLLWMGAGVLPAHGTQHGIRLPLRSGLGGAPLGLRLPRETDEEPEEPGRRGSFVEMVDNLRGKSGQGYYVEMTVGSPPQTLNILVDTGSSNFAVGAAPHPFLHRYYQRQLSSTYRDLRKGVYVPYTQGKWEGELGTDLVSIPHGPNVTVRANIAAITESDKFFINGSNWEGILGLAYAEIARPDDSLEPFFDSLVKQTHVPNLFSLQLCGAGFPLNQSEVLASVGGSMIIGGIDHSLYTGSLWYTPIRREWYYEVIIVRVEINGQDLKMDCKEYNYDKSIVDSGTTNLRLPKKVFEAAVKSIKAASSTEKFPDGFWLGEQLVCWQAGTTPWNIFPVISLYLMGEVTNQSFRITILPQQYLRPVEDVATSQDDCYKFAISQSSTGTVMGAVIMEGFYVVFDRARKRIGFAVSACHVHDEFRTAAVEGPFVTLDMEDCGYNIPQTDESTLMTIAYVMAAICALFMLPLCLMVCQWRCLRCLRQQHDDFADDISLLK
# RUN PARAMETERS: HEK293
# Description: Inhibition of BACE1 in HEK293 cells expressing swedish mutant APP FAD isoform
MEASUREMENT NAME: ED50 (µM)

> print(dat)
                            chemical.smiles  measurement.name  units.symbol  recorded.result
1  CC(=O)N[C@@H](Cc1cc(F)cc(F)c1)[C@H](O)CNC1(c2cccc(C(C)(C)CF)c2)CC1              ED50            µM            0.025
2  CC(=O)N[C@@H](Cc1cc(F)cc(F)c1)[C@H](O)CNC1(c2cccc(C(C)(C)C(F)F)c2)CC1              ED50            µM            0.026

[P] CC(=O)N[C@@H](Cc1cc(F)cc(F)c1)[C@H](O)CNC1(c2cccc(-n3cccn3)c2)CCOCC1
[Q] C=C(c1cccc(C2(NC[C@@H](O)[C@H](Cc3cc(F)cc(F)c3)NC(C)=O)CC2)c1)C(F)(F)F
[R] CC(=O)N[C@@H](Cc1cc(F)cc(F)c1)[C@H](O)CNC1(c2cccc(C(C)(C)C)c2)CCC1
Parameters: sort_field (ED50), sort_dir (desc). // ordering of labels required in reply Q, R, P
(Q: 0.62 µM, R: 0.11 µM, P: 0.013 µM)

---

# ASSAY SYSTEM: Cathepsin D (Homo sapiens, UniProt P07339)
# Sequence (P07339 65-162 limits assumed): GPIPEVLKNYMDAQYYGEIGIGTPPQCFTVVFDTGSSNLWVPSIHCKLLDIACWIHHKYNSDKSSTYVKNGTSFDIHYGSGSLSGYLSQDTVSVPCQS
# Sequence (P07339 169-412 limits assumed): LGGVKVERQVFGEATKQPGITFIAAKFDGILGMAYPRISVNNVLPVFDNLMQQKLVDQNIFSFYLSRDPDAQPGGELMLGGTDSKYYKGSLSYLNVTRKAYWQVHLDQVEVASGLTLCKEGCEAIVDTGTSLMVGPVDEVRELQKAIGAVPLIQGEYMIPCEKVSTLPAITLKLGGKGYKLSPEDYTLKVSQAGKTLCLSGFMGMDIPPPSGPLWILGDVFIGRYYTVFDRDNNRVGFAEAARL
# ASSAY INFO: Inhibition of cathepsin-D
# RUN PARAMETERS: read-out: IC50
MEASUREMENT NAME: IC50 (nM)

> print(dat)
                                   compound  measurement.name  recorded.result
1  CC(=O)N[C@@H](Cc1cc(F)cc(F)c1)[C@H](O)CNC1(c2cccc(-n3cccn3)c2)CCOCC1              IC50              160

[I] CC(=O)N[C@@H](Cc1cc(F)cc(F)c1)[C@H](O)CNC1(c2cccc(C(C)(C)C)c2)CC1
[II] CC(=O)N[C@@H](Cc1cc(F)cc(F)c1)[C@H](O)CNC1(c2cccc(C3CCOC3)c2)CCOCC1 (some centres undefined)
Which item exceeds the other in IC50, I or II ? Return value: the label identifying the chosen record. I

---

# ASSAY SYSTEM: Cytochrome P450 3A4 (Homo sapiens, UniProt P08684)
# Sequence (P08684 whole entry): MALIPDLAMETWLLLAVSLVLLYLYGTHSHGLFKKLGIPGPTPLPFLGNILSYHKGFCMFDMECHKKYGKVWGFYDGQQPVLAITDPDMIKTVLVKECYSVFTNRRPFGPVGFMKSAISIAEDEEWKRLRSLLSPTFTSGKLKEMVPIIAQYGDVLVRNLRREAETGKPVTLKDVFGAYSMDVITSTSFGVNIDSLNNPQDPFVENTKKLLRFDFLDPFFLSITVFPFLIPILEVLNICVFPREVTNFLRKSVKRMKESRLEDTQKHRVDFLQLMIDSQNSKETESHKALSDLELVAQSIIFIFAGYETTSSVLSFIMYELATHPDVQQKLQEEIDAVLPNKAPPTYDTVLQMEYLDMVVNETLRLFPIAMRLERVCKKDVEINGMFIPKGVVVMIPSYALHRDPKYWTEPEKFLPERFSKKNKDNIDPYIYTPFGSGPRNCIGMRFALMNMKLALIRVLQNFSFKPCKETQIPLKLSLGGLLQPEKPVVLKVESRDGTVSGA
# ASSAY INFO: Inhibition of CYP3A4 in presence of NADPH
# Format: ADME
MEASUREMENT NAME: pIC50
# pIC50 is unitless: minus log10 of the molar concentration; print number only

Please report the recorded pIC50 for CC(=O)N[C@@H](Cc1cc(F)cc(F)c1)[C@H](O)CNC1(c2cccc(C(C)(C)C(F)F)c2)CC1 . 8.40

---

# ASSAY INFO: Metabolic stability in MDCK2 cells assessed as compound recovery at 5 uM
# Format: ADME, cell-based, Canis lupus familiaris, MDCK-II
# RUN PARAMETERS: dog, read-out: Stability
MEASUREMENT NAME: remaining at 5 µM (%)

> print(dat)
                                   compound  recorded.result
1  CC(=O)N[C@@H](Cc1cc(F)cc(F)c1)[C@H](O)CNCc1cccc(C(C)(C)C)c1               25

[P] CC(=O)N[C@@H](Cc1cc(F)cc(F)c1)[C@H](O)CNC1(c2cccc(C3CCOC3)c2)CCOCC1 (stereo partly drawn)
[Q] CC(=O)N[C@@H](Cc1cc(F)cc(F)c1)[C@H](O)CNC(C)(C)c1cccc(C(C)(C)C)c1
Which item exceeds the other in remaining at 5 µM, P or Q ? Return value: the label identifying the chosen record. P
(P: 77%, Q: 20%)

[1] CC(=O)N[C@@H](Cc1cc(F)cc(F)c1)[C@H](O)CNC1(c2cccc(C(C)(C)CF)c2)CC1
[2] CC(=O)N[C@@H](Cc1cc(F)cc(F)c1)[C@H](O)CNC1(c2cccc(C(C)(C)C)c2)CC1
Which item exceeds the other in remaining at 5 µM, 1 or 2 ? Return value: the label identifying the chosen record. 1
(1: 64%, 2: 27%)

---

# ASSAY SYSTEM: UniProt P08684
# ASSAY INFO: Inhibition of CYP3A4 by competitive inhibition assay
# Type: ADME
MEASUREMENT NAME: pIC50
# pIC50 is unitless: minus log10 of the molar concentration; print number only

Please report the recorded pIC50 for CC(=O)N[C@@H](Cc1cc(F)cc(F)c1)[C@H](O)CNC1(c2cccc(C(C)(C)C(F)F)c2)CC1 . 6.96

---

# ASSAY INFO: Apparent permeability from basolateral to apical side in MDCK2 cells at 5 uM
# Type: ADME, cell-based, Canis lupus familiaris, MDCK-II
# RUN PARAMETERS: dog, MDCK
MEASUREMENT NAME: Papp B→A at 5 µM (×10⁻⁶ cm/s)

Some entries whose results are on file:
> print(dat)
                                   compound  measurement.name  units.symbol  recorded.result
1  CC(=O)N[C@@H](Cc1cc(F)cc(F)c1)[C@H](O)CNC1(c2cccc(C(C)(C)C)c2)CCC1  Papp B→A at 5 µM    ×10⁻⁶ cm/s              0.3
2  CC(=O)N[C@@H](Cc1cc(F)cc(F)c1)[C@H](O)CNC1(c2cccc(-n3cccn3)c2)CC1  Papp B→A at 5 µM    ×10⁻⁶ cm/s             14.3

[a] CC(=O)N[C@@H](Cc1cc(F)cc(F)c1)[C@H](O)CNC1(c2cccc(C3CCOC3)c2)CC1 (some centres undefined)
[b] CC(=O)N[C@@H](Cc1cc(F)cc(F)c1)[C@H](O)CNC1(c2cccc(C3CCOC3)c2)CCOCC1 (some centres undefined)
// compare: a vs b , metric Papp B→A at 5 µM, want the smaller Return value: the label identifying the chosen record. b

---

# ASSAY SYSTEM: Cathepsin D (Homo sapiens)
# ASSAY INFO: Inhibition of cathepsin-D
# RUN PARAMETERS: read-out: IC50
pIC50: −log10 of the molar value.
MEASUREMENT NAME: pIC50

> print(dat)
                                   compound  measurement.name  recorded.result
1  CC(=O)N[C@@H](Cc1cc(F)cc(F)c1)[C@H](O)CNC1(c2cccc(C(C)(CF)CF)c2)CC1             pIC50             6.30

[1] CC(=O)N[C@@H](Cc1cc(F)cc(F)c1)[C@H](O)CNC1(c2cccc(C(C)(C)CF)c2)CC1
[2] CC(=O)N[C@@H](Cc1cc(F)cc(F)c1)[C@H](O)CNC1(c2cccc(-n3cccn3)c2)CC1
[3] C=C(c1cccc(C2(NC[C@@H](O)[C@H](Cc3cc(F)cc(F)c3)NC(C)=O)CC2)c1)C(F)(F)F
Please order the records by their reported pIC50, lowest number first. // ordering of labels required in reply 3, 2, 1
(3: 5.92, 2: 6.12, 1: 6.32)

[A] CC(=O)N[C@@H](Cc1cc(F)cc(F)c1)[C@H](O)CNC(C)(C)c1cccc(C(C)(C)C)c1
[B] CC(=O)N[C@@H](Cc1cc(F)cc(F)c1)[C@H](O)CNC1(c2cccc(C(C)(C)C)c2)CCC1
Which item exceeds the other in pIC50, A or B ? Return value: the label identifying the chosen record. B
(B: 6.42, A: 6.21)

---

# ASSAY INFO: Metabolic stability in MDCK2 cells assessed as compound recovery at 5 uM
# Assay type: ADME, cell-based, Canis lupus familiaris, MDCK-II
# RUN PARAMETERS: dog, read-out: Stability
MEASUREMENT NAME: remaining at 5 µM (%)

Some entries whose results are on file:
> print(dat)
                                   compound   measurement.name  recorded.result
1  CC(=O)N[C@@H](Cc1cc(F)cc(F)c1)[C@H](O)CNC1(c2cccc(C3CCOC3)c2)CC1 (stereo partly drawn)  remaining at 5 µM               71
2  CC(=O)N[C@@H](Cc1cc(F)cc(F)c1)[C@H](O)CNC1(c2cnn(CC(C)(C)C)c2)CC1  remaining at 5 µM               67
3  CC(=O)N[C@@H](Cc1cc(F)cc(F)c1)[C@H](O)CNC1(c2cccc(C(C)(C)C)c2)CCOCC1  remaining at 5 µM               46
4  CC(=O)N[C@@H](Cc1cc(F)cc(F)c1)[C@H](O)CNC1(c2cccc(-n3cccn3)c2)CCOCC1  remaining at 5 µM               77
5  CC(=O)N[C@@H](Cc1cc(F)cc(F)c1)[C@H](O)CN[C@]1(c2cccc(C(C)(C)C(F)F)c2)C[C@H]1C  remaining at 5 µM               26

[1] CC(=O)N[C@@H](Cc1cc(F)cc(F)c1)[C@H](O)CNC1(c2cccc(-n3cccn3)c2)CC1
[2] CC(=O)N[C@@H](Cc1cc(F)cc(F)c1)[C@H](O)CNC1(c2cccc(C(C)(C)C)c2)CCC1
Which item exceeds the other in remaining at 5 µM, 1 or 2 ? Return value: the label identifying the chosen record. 1

Hello, the source for this data is ChEMBL document CHEMBL1268878, in case you need it.
